- tested.system: BRD2 (BD1) (Homo sapiens, UniProt P25440)
- Construct: a bromodomain of BRD2 (BD1) and BRD3 (BD1), one of the BET protein family
- Sequence (P25440 74-180 limits assumed): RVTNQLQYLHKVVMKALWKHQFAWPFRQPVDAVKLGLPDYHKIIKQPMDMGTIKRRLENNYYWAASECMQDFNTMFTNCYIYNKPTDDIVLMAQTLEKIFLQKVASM
- experiment.notes: Binding inhibitory effect on BRD2 protein (AlphaScreen, acetyl-histone H4 peptide)
- experimental.conditions: GST-BRD2 (BD1) 100 nM, biotinylated acetyl-histone H4 peptide 100 nM
result.type: IC50 (µM)
Quick note: give the figure in µM, leave out the unit.

Request: Requested read-out: IC50. Entry: CNC(=O)C1(Cc2ccccc2)CCCN(Cc2ccc(-c3ccccc3-c3cccc4c3CN(C)C4=O)o2)C1 (stereo not drawn) [Compound 27]
Response: 14.1

Request: Quick check: IC50 of CC(C)NCc1ccc(-c2ccccc2-c2cccc3c2CN(C)C3=O)o1 [Compound 8] ?
Response: 16.6

Request: Quick one: IC50 of CNC(=O)CC1C(=O)NCCN1C(=O)c1ccc(-c2ccccc2-c2cccc3c2CN(C)C3=O)o1 (stereo not drawn) [Compound 35] ?
Response: 12.3

Data provenance is patent US20250289808A1.
